Ref: the C3SDB collision cross section collection

applied conditions: [M-H]-; instrument: DT; single field, calibrated with ESI Low Concentration Tuning Mix (Agilent)
property name: collision cross section (N2) (Å²)

Here are 5 molecules together with their reported answers.
molecule | collision cross section (N2) [Å²]
Nc1ncnc2c1ncn2[C@H]1C[C@H](O)[C@@H](COP(=O)(O)O)O1 [DEOXYADENOSINE MONOPHOSPHATE] | 164.9
OC1C(O)C(O)C(O)C(O)C1O (centres undefined) [MYOINOSITOL] | 131.3
O=C(O)c1cccc(O)c1[O-] [2,3-DIHYDROXYBENZOATE] | 120.6
O=c1[nH]c(=O)c2[nH]cnc2[nH]1 [XANTHINE] | 120.6
CC(=O)N[C@@H](CCC(=O)O)C(=O)O [N-ACETYLGLUTAMATE] | 136.9

[A] C=C(CC(=O)O)C(=O)O [ITACONATE]
[B] OC[C@H]1O[C@H](OC[C@H]2OC(O)[C@H](O)[C@@H](O)[C@@H]2O)[C@H](O)[C@@H](O)[C@H]1O (some centres undefined) [MELIBIOSE]
Lab note: check whether A or B has the lower measured collision cross section (N2). # respond with the chosen item's label A

---

applied conditions: [M+Na]+; instrument: DT; stepped-field
property name: collision cross section (N2) (Å²)

compound | property name | uom | measurement
CCCCCCCCCC/C=C\CCCCCCCCCC(=O)O[C@H](COC(=O)CCCCCCCCCCCCC)COP(=O)(O)OCCN [PE(36:1)] | collision cross section (N2) | Å² | 288.5
CC/C=C\C/C=C\C/C=C\C/C=C\C/C=C\C/C=C\CCC(=O)OC[C@H](COP(=O)(O)OC[C@H](N)C(=O)O)OC(=O)CCCCCCCCC/C=C\CCCCCCCCCC [PS(44:7)] | collision cross section (N2) | Å² | 311.8
CC/C=C\C/C=C\C/C=C\C/C=C\C/C=C\C/C=C\CCC(=O)OC[C@H](COP(=O)(O)OC[C@H](N)C(=O)O)OC(=O)CCCCCCC/C=C\CCCCCCC [PS(39:7)] | collision cross section (N2) | Å² | 293.1
CC/C=C\C/C=C\C/C=C\C/C=C\C/C=C\CCCC(=O)O[C@H](COC(=O)CCCC/C=C\C/C=C\C/C=C\CCCCC)COP(=O)([O-])OCC[N+](C)(C)C [PC(38:8)] | collision cross section (N2) | Å² | 299.9
OC[C@H]1O[C@H](O[C@H]2[C@H](O)[C@@H](O)[C@@H](O[C@H]3[C@H](O)[C@@H](O)[C@@H](O[C@H]4[C@H](O)[C@@H](O)[C@@H](O[C@H]5[C@H](O)[C@@H](O)[C@@H](O[C@H]6[C@H](O)[C@@H](O)[C@@H](O)O[C@@H]6CO)O[C@@H]5CO)O[C@@H]4CO)O[C@@H]3CO)O[C@@H]2CO)[C@H](O)[C@@H](O)[C@@H]1O [Maltohexaose] | collision cross section (N2) | Å² | 286.4
CCCCC/C=C\C/C=C\C/C=C\CCCCCCC(=O)O[C@H](COC(=O)CCCCCCC/C=C\CCCCCC)COP(=O)(O)OCCN [PE(36:4)] | collision cross section (N2) | Å² | 280.6
CCCCC/C=C\C/C=C\C/C=C\C/C=C\CCCCCC(=O)O[C@H](COC(=O)CCCCCCCCC/C=C\CCCCCCCCCC)COP(=O)(O)OC[C@H](N)C(=O)O [PS(44:5)] | collision cross section (N2) | Å² | 311.5
CC(=O)NC1C(OC2C(O)C(CO)OC(OC3C(CO)OC(O)C(O)C3O)C2O)OC(CO)C(O)C1OC1OC(CO)C(O)C(O)C1O (stereo not given) [HexNAc-(Hex)3] | collision cross section (N2) | Å² | 244
CC/C=C\C/C=C\C/C=C\C/C=C\CCCCC(=O)O[C@H](COC(=O)CCC/C=C\C/C=C\C/C=C\C/C=C\CCCCC)COP(=O)(O)OCCN [PE(38:8)] | collision cross section (N2) | Å² | 281.9
CC/C=C\C/C=C\C/C=C\C/C=C\C/C=C\C/C=C\CCC(=O)OC[C@H](COP(=O)(O)OC[C@H](N)C(=O)O)OC(=O)CC/C=C\C/C=C\C/C=C\C/C=C\C/C=C\C/C=C\CC [PS(44:12)] | collision cross section (N2) | Å² | 299.7

---

applied conditions: [M+H]+; instrument: TW; calibrated with polyalanine and drug standards
property name: collision cross section (N2) (Å²)

molecule | measurement
Nc1nc(/C(=C/CC(=O)O)C(=O)N[C@@H]2C(=O)N3C(C(=O)O)=CCS[C@H]23)cs1 | 191.4
c1ccc2[nH]c(-c3cscn3)nc2c1 | 137.7
CC(=O)O[C@@H]1C[C@H]2C(C)(C)C(=O)C=C[C@]2(C)[C@H]2CC[C@@]3(C)[C@H](c4ccoc4)OC(=O)[C@H]4O[C@]43[C@@]21C | 205.7
CCN(Cc1ccncc1)C(=O)C(CO)c1ccccc1 (stereo unspecified) [TROPICAMIDE] | 169.5
CC(C)n1c(/C=C/[C@@H](O)C[C@@H](O)CC(=O)O)c(-c2ccc(F)cc2)c2ccccc21 | 200.6
O=c1cc(-c2ccc(O)cc2)oc2ccc(O)cc12 [6,4'-DIHYDROXYFLAVONE] | 152.7
CC1CCc2cc(F)cc3c(=O)c(C(=O)O)cn1c23 (stereo unspecified) | 149.8
C=CCc1cc(OC)c2c(c1OC)OCO2 | 146.1
Oc1ccc(Cl)c2cccnc12 | 129.5
COc1cc(CNC(=O)CCCC/C=C/C(C)C)ccc1O | 181.6

[A] COc1cc(C)c2c(=O)cc(-c3ccccc3)oc2c1
[B] COc1ccc(-c2cc(=O)c3c(O)c(OC)c(O[C@@H]4O[C@H](CO[C@@H]5O[C@@H](C)[C@H](O)[C@@H](O)[C@H]5O)[C@@H](O)[C@H](O)[C@H]4O)cc3o2)cc1
Lab note: check whether A or B has the lower measured collision cross section (N2). # respond with the chosen item's label A

[P] COc1c(C)c2c(c(O)c1C/C=C(\C)CCC(=O)OCCN1CCOCC1)C(=O)OC2 [MYCOPHENOLATE MOFETIL]
[Q] CC(=O)Nc1ccccc1 [ACETANILIDE]
Lab note: check whether P or Q has the lower measured collision cross section (N2). # respond with the chosen item's label Q

---

applied conditions: [M-H]-; instrument: DT; single field, calibrated with Agilent tune mix (Agilent)
property name: collision cross section (N2) (Å²)

Here are 2 compounds together with their reported answers.
compound | collision cross section (N2) [Å²]
O=P(O)(O)OC[C@H]1O[C@@H](O)C[C@@H]1O [2-Deoxyribose 5-phosphate] | 132.47
Nc1ncnc2c1ncn2[C@H]1C[C@H](O)[C@@H](CO)O1 [Deoxyadenosine] | 152.2

[A] COc1ccc2[nH]cc(CCNC(C)=O)c2c1 [Melatonin]
[B] CCCC(=O)SCCNC(=O)CCNC(=O)[C@H](O)C(C)(C)COP(=O)(O)OP(=O)(O)OC[C@H]1O[C@@H](n2cnc3c(N)ncnc32)[C@H](O)[C@@H]1OP(=O)(O)O [Butyryl-coenzyme A]
Lab note: check whether A or B has the lower measured collision cross section (N2). # respond with the chosen item's label A
(A: 153.53 Å², B: 253.26 Å²)

[a] OC[C@@H](O)C(O)[C@@H](O)CO (some centres undefined) [Xylitol]
[b] CC1=C(/C=C/C(C)=C\C=C\C(C)=C\C(=O)O)C(C)(C)CCC1 [9-cis-Retinoic acid]
[c] CCCCCCCCCCCCCC(=O)SCCNC(=O)CCNC(=O)C(O)C(C)(C)COP(=O)(O)OP(=O)(O)OC[C@H]1O[C@@H](n2cnc3c(N)ncnc32)[C@H](O)[C@@H]1OP(=O)(O)O (some centres undefined) [Myristoyl-coenzyme A]
List items by collision cross section (N2) in falling order. Please respond with the labels ordered as the question requires. c, b, a
(c: 290.65 Å², b: 200.01 Å², a: 122.4 Å²)

---

applied conditions: [M-H]-; instrument: TW; calibrated with phosphatidylcholines (ESI+) and phosphatidylethanolamines (ESI-)
property name: collision cross section (N2) (Å²)

compound | measurement
CC/C=C\C/C=C\C/C=C\C/C=C\CCCCC(=O)OC[C@H](COP(=O)(O)OCCN)OC(=O)CCCCCCCCC/C=C\C/C=C\CCCCC [PE(38:6)] | 269.2
CCCCC/C=C\C/C=C\C/C=C\C/C=C\CCCC(=O)O[C@H](CO/C=C\CCCCCCCCCCCCCCCCCC)COP(=O)(O)OCCN [PE(p40:4)] | 276.1
CCCCC/C=C\C/C=C\C/C=C\CCCCCCC(=O)O[C@H](COC(=O)CCCCCCC/C=C\CCCCCCCC)COP(=O)(O)OC[C@H](N)C(=O)O [PS(38:4)] | 280.9
CCCCCCCCCC/C=C\CCCCCCCCCC(=O)O[C@H](COC(=O)CCCCCCCCCCC)COP(=O)(O)OC[C@@H](O)CO [PG(34:1)] | 268.9
CCCCCCCCCCCCCCCC(=O)O[C@H](CO)COP(=O)(O)OCCN [LPE(16:0)] | 206
CC/C=C\C/C=C\C/C=C\C/C=C\C/C=C\C/C=C\CCC(=O)O[C@H](CO/C=C\CCCCCCCCCCCCCC)COP(=O)(O)OCCN [PE(p38:6)] | 268.1
